Test system: HEK-293T
Test Details: Multiplex assay against HEK293T
Type: toxicity, cell-based
Recorded Conditions: human, 48 h, 10 µM, compound concentration 10 uM, replicate 1

{"Molecule": "CCCCCC(O)/C=C/[C@H]1C(=O)CC(O)C1C/C=C\\CCCC(=O)O (some centres undefined)", "Unit String": "%", "Population Apoptotic (%)": 22}
{"Molecule": "O=C(NCCN1CCC(n2c(=O)[nH]c3cc(Cl)ccc32)CC1)c1ccc(F)cc1 [HALOPEMIDE]", "Unit String": "%", "Population Apoptotic (%)": 37}
{"Molecule": "COC[C@@H](c1ccc(C(F)(F)F)cc1)N1CCN(C2(C)CCN(C(=O)c3c(C)ncnc3C)CC2)C[C@@H]1C.O=C(O)/C=C\\C(=O)O [VICRIVIROC MALEATE]", "Unit String": "%", "Population Apoptotic (%)": 38}
{"Molecule": "N#Cc1cc(F)cc(-c2nc(-c3ccc(F)cn3)no2)c1", "Unit String": "%", "Population Apoptotic (%)": 39}

====

System: Fibroblast
Test Details: Multiplex assay against human fibroblast
Assay type: toxicity, cell-based
Recorded Conditions: 48 h, 1 µM, compound concentration 1 uM, replicate 1
// reported Total Cell Count per item

{"Compound": "O=C(NCCN1CCC(n2c(=O)[nH]c3cc(Cl)ccc32)CC1)c1ccc(F)cc1 [HALOPEMIDE]", "Total Cell Count": 128}
{"Compound": "CCCCCC(O)/C=C/[C@H]1C(=O)CC(O)C1C/C=C\\CCCC(=O)O (stereo not given in full)", "Total Cell Count": 175}
{"Compound": "CC(C)c1noc(N2CCC(COc3ccc(-c4ccc(S(C)(=O)=O)cc4)nc3)CC2)n1 [GSK-1292263]", "Total Cell Count": 193}
{"Compound": "COc1cccc2c1c(NS(=O)(=O)c1ccc(Cl)s1)nn2Cc1cccc(CNC(=O)C(C)(C)O)c1", "Total Cell Count": 135}
{"Compound": "CC(/C=C1\\SC(=S)N(CCCC(=O)Nc2ccc(C(=O)O)c(O)c2)C1=O)=C\\c1ccccc1", "Total Cell Count": 216}

====

Test system: U2OS
Test Details: Multiplex assay against U2OS
Assay type: toxicity, cell-based
Recorded Conditions: human, 12 h, 10 µM, compound concentration 10 uM, replicate 2
Measurement Label: Population Hoechst High Intensity Objects (%)

{"Compound": "O=C1[C@H](Cc2ccc(O)cc2)N2C(=O)CCN(C(=O)NCc3ccccc3)[C@H]2CN1Cc1cccc2ccccc12", "Value Measured": 6}
{"Compound": "Cc1sc2c(c1C)C(c1ccc(Cl)cc1)=N[C@@H](CC(=O)NCCCCCCCCNC(=O)COc1cccc3c1C(=O)N(C1CCC(=O)NC1=O)C3=O)c1nnc(C)n1-2 (stereo partly drawn)", "Value Measured": 0}
{"Compound": "CCCCC1=NC2(CCCC2)C(=O)N1Cc1ccc(-c2ccccc2-c2nnn[nH]2)cc1 [IRBESARTAN]", "Value Measured": 0}
{"Compound": "Cl.NCCc1ccc(O)c(O)c1 [DOPAMINE HYDROCHLORIDE]", "Value Measured": 0}
{"Compound": "Br.CS(=O)(=O)Nc1c(O)ccc2c1CCCC2C1=NCCN1 (stereo not drawn)", "Value Measured": 0}
{"Compound": "CC(C)c1noc(N2CCC(COc3ccc(-c4ccc(S(C)(=O)=O)cc4)nc3)CC2)n1 [GSK-1292263]", "Value Measured": 0}
{"Compound": "CCCCC(=O)N(Cc1ccc(-c2ccccc2-c2nnn[nH]2)cc1)[C@H](C(=O)O)C(C)C", "Value Measured": 0}
{"Compound": "CN(C)C(=O)Cn1cc(-c2ccc(-c3cncc4ccccc34)cc2)cn1", "Value Measured": 3}

====

System: HEK-293T
Test Details: Multiplex assay against HEK293T
Assay type: toxicity, cell-based
Recorded Conditions: human, 12 h, 1 µM, compound concentration 1 uM, replicate 2
Each entry below carries its recorded Population Apoptotic (%).

{"Molecule": "CC(=O)Nc1cccc2c1c(Sc1ccc(Cl)cc1)c(C)n2CC(=O)O", "Population Apoptotic (%)": 60}
{"Molecule": "N#Cc1cc(F)cc(-c2nc(-c3ccc(F)cn3)no2)c1", "Population Apoptotic (%)": 64}
{"Molecule": "Cc1noc(-c2ccc(-c3ccc(CC(=O)O)cc3)cc2)c1NC(=O)O[C@H](C)c1ccccc1Cl", "Population Apoptotic (%)": 59}
{"Molecule": "CCc1cc2cc(NS(=O)(=O)c3ccc(C#N)cc3)ccc2n(CC)c1=O", "Population Apoptotic (%)": 40}
{"Molecule": "CCCCC(=O)N(Cc1ccc(-c2ccccc2-c2nnn[nH]2)cc1)[C@H](C(=O)O)C(C)C", "Population Apoptotic (%)": 40}
{"Molecule": "NCCc1cn(S(=O)(=O)c2c(Cl)nc3sccn23)c2ccccc12.O=C(O)C(=O)O", "Population Apoptotic (%)": 52}
{"Molecule": "CC(C)c1noc(N2CCC(COc3ccc(-c4ccc(S(C)(=O)=O)cc4)nc3)CC2)n1", "Population Apoptotic (%)": 25}
{"Molecule": "O=C(CCCc1ccccc1)Nc1nc2ccccc2c(=O)s1", "Population Apoptotic (%)": 43}
{"Molecule": "Cl.NCCc1ccc(O)c(O)c1 [DOPAMINE HYDROCHLORIDE]", "Population Apoptotic (%)": 54}
{"Molecule": "N#Cc1c(Oc2cccc(OS(=O)(=O)CCCC(F)(F)F)c2)cccc1C(F)(F)F", "Population Apoptotic (%)": 63}
{"Molecule": "C[C@H](N)COC(=O)[C@@H](CCCCN)NC(=O)Cc1c(-c2ccc3ccccc3c2)[nH]c2c1ccc1ccccc12", "Population Apoptotic (%)": 51}
{"Molecule": "COc1cccc2c1c(NS(=O)(=O)c1ccc(Cl)s1)nn2Cc1cccc(CNC(=O)C(C)(C)O)c1", "Population Apoptotic (%)": 34}
{"Molecule": "CCCOc1ccc2[nH]cc(C3=CCNCC3)c2n1.Cl", "Population Apoptotic (%)": 44}
{"Molecule": "CN[C@@H](C)C(=O)N[C@H](C(=O)N1CCC[C@H]1C(=O)Nc1snnc1-c1ccccc1)C1CCCCC1", "Population Apoptotic (%)": 60}
{"Molecule": "Cc1c(CC(=O)O)c2cccnc2n1Cc1ccc(S(C)(=O)=O)cc1C(F)(F)F", "Population Apoptotic (%)": 41}
{"Molecule": "Br.CS(=O)(=O)Nc1c(O)ccc2c1CCCC2C1=NCCN1 (stereo not drawn)", "Population Apoptotic (%)": 43}
{"Molecule": "CC[C@@H](C)Nc1nc(C)nc2c(-c3ccc(OC)nc3C)c(C)nn12", "Population Apoptotic (%)": 47}
{"Molecule": "CCCCC1=NC2(CCCC2)C(=O)N1Cc1ccc(-c2ccccc2-c2nnn[nH]2)cc1", "Population Apoptotic (%)": 28}
{"Molecule": "CC(/C=C1\\SC(=S)N(CCCC(=O)Nc2ccc(C(=O)O)c(O)c2)C1=O)=C\\c1ccccc1", "Population Apoptotic (%)": 50}
{"Molecule": "Cl.N=C(N)NC(=O)Cc1c(Cl)cccc1Cl [GUANFACINE HYDROCHLORIDE]", "Population Apoptotic (%)": 47}
{"Molecule": "COc1ccccc1N1CCN(C[C@@H](C(=O)NC(C)(C)C)c2ccccc2)CC1.Cl.Cl", "Population Apoptotic (%)": 42}
{"Molecule": "Cc1onc(-c2ccccc2Cl)c1C(=O)N(C)c1ccc(Cl)cc1", "Population Apoptotic (%)": 37}
{"Molecule": "O=C1[C@H](Cc2ccc(O)cc2)N2C(=O)CCN(C(=O)NCc3ccccc3)[C@H]2CN1Cc1cccc2ccccc12", "Population Apoptotic (%)": 46}
{"Molecule": "CC(C)COc1ccc(CNC(=O)N(Cc2ccc(F)cc2)C2CCN(C)CC2)cc1", "Population Apoptotic (%)": 54}
{"Molecule": "O=C(NCCN1CCC(n2c(=O)[nH]c3cc(Cl)ccc32)CC1)c1ccc(F)cc1 [HALOPEMIDE]", "Population Apoptotic (%)": 43}
{"Molecule": "COC[C@@H](c1ccc(C(F)(F)F)cc1)N1CCN(C2(C)CCN(C(=O)c3c(C)ncnc3C)CC2)C[C@@H]1C.O=C(O)/C=C\\C(=O)O [VICRIVIROC MALEATE]", "Population Apoptotic (%)": 45}
{"Molecule": "CC(C)(C)c1cc(NC(=O)Nc2ccc(-c3cn4c(n3)sc3cc(OCCN5CCOCC5)ccc34)cc2)no1", "Population Apoptotic (%)": 34}
{"Molecule": "Cc1sc2c(c1C)C(c1ccc(Cl)cc1)=N[C@@H](CC(=O)NCCCCCCCCNC(=O)COc1cccc3c1C(=O)N(C1CCC(=O)NC1=O)C3=O)c1nnc(C)n1-2 (stereo partly drawn)", "Population Apoptotic (%)": 62}
{"Molecule": "Cc1cccc(NC(=O)CN2CCC(c3ccccn3)CC2)c1.Cl.Cl", "Population Apoptotic (%)": 46}
{"Molecule": "CN1CCN(c2cc(-c3ccccc3)nc(N)n2)CC1", "Population Apoptotic (%)": 34}
{"Molecule": "Cc1cnc(-c2cc(N3CCN(C(=O)CCS(C)(=O)=O)CC3)ncc2Cl)c(C)c1", "Population Apoptotic (%)": 42}
{"Molecule": "CN(C)C(=O)Cn1cc(-c2ccc(-c3cncc4ccccc34)cc2)cn1", "Population Apoptotic (%)": 40}
{"Molecule": "CCCCCC(O)/C=C/[C@H]1C(=O)CC(O)C1C/C=C\\CCCC(=O)O (stereo partly drawn)", "Population Apoptotic (%)": 39}
